System: J2 IgG LC Y31F, PDB:9OJV_1+PDB:9OJV_2
Test: BLI steady state
Settings: 100 mM KCl; kinetic Kd 130 ± 20 nM; BLI: 25 mM Tris-HCl pH 7.5, 100-400 mM KCl (per row), 2 mM MgCl2, 25 C, IgG immobilized on Protein A; FP: 25 mM Tris-HCl pH 7.5, 100 mM KCl, 2 mM MgCl2, 21 C
Measured attribute: Kd (nM)
Form entry: value (nM) — number only.

Ask | Form field - read-out: Kd; system: J2 IgG LC Y31F, PDB:9OJV_1+PDB:9OJV_2; submitted item: GUUGUAAAGAAAUAUAGGCU / AGCCUAUAUUUCUUUACAAC [20-bp dsRNA]
Reply | 360

Entry source: paper PMC12816604
